Assay: chemical genetic growth profiling, strain panel (AID 1159580);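 also: tested at 20 µM; growth read once vehicle control cultures reached saturation at 30 °C; lower values mean less growth of the strain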
Settings: S. cerevisiae deletion strains, growth OD, locus YLR418C, strain cdc73
The campaign covered roughly 5,500 compounds. About 2,000 (36%) were called active. About 18% were inconclusive and are not listed. Rule as the data show it: active = normalized growth mostly below about 0.91 (no sharp cut-off); inconclusive = no clear call, values can overlap the other calls; inactive = mostly above about 0.92. The list shows a part of the results.
Select the correct class. Options are true (active), false (inactive) and nothing else.

compound	answer_label
CC1(C)C2CC[C@]3(C)C(C(=O)C=C4[C@@H]5C[C@@](C)(C(=O)O)CC[C@]5(C)CC[C@]43C)[C@@]2(C)CC[C@@H]1O (stereo partly specified)	false
CN1C2CC3C[C@H]1C(O3)C2O (stereo partly specified)	false
C/C=C(/C(=C/C)c1ccc(O)cc1)c1ccc(O)cc1	true

Prompt line: Each compound tested received a call. Report the one for COc1cc(O)c(C(=O)c2ccccc2)cc1O .
Response line: false

Prompt line: Subsequent entry: Cc1ccc(O)cc1
Response line: false

Prompt line: Here is the next compound: CCOC(=O)/C=C(\C)OP(=O)(OC)OC
Response line: false

Prompt line: Continue with Oc1ccc(O)cc1
Response line: false

Prompt line: Another compound to look at: COC(=O)c1c(Cl)c(Cl)c(C(=O)OC)c(Cl)c1Cl
Response line: false

Prompt line: Try C[N+](C)(C)CCOP(=O)([O-])OP(=O)(O)OC[C@H]1OC(n2ccc(N)nc2=O)[C@H](O)[C@@H]1O (stereo partly specified) next.
Response line: false

Prompt line: Another compound to check: Cc1cc(=O)c2c(O)cc(O)c(C)c2o1
Response line: false

Prompt line: # iterate: CN=C(NC#N)NCCSCc1nc[nH]c1C
Response line: false
